Source: paper PMC10812672

# Tested on: E. coli ATCC® 8739
# Type: cell-based, Escherichia coli
# particulars: CLSI broth microdilution, Mueller-Hinton broth, peptide 30 µM, ~6 × 10^6 CFU/mL, 24 h 37 °C, OD600; triplicate, three independent assays; NA = no activity
Ends that are not written are not given here.
property: E. coli ATCC® 8739 (Inhibition %)
Record the value in %, omitting the unit from your answer.

Worked examples, 5 substances total:
Ask | Item under review: CRKLCFRNRCLTYCRGR-NH2 (disulfide (positions not given here)) [PvAMP172, predicted P. verdolaga AMP] . Reported E. coli ATCC® 8739 (Inhibition %)?
Reply | 64.78

Ask | Item under review: WKKIKKFF-NH2 [PvAMP66] . Reported E. coli ATCC® 8739 (Inhibition %)?
Reply | 88.81

Ask | Item under review: IIKKIWK-NH2 [PvAMP32] . Reported E. coli ATCC® 8739 (Inhibition %)?
Reply | 30.73

Ask | Item under review: QCRKLCFRNRCLTYCRGRG-NH2 (disulfide (positions not given here)) [PvAMP183, predicted P. verdolaga AMP] . Reported E. coli ATCC® 8739 (Inhibition %)?
Reply | 48.26

Ask | Item under review: RSVLKAHCRICRRRG-NH2 (disulfide) [PvAMP164, predicted P. verdolaga AMP] . Reported E. coli ATCC® 8739 (Inhibition %)?
Reply | 20.51

We now examine a further substance.
Ask | Item under review: QCRKLCFRNRCLTYCRGR-NH2 (disulfide (positions not given here)) [PvAMP177, predicted P. verdolaga AMP] . Reported E. coli ATCC® 8739 (Inhibition %)?
Reply | 93.07
